Values were extracted from patent US20230219965A1.

Test system: Ub-PCNA levels in the nucleus of ES2 cells (USP1 activity)
PROCEDURE TEXT: ES2 Ub-PCNA immunofluorescence (IF) assay
Type: cell-based
MEASUREMENT SETUP: Homo sapiens, ES-2; ES2 cells, 3 hours, Ub-PCNA immunofluorescence; read-out: USP1 IC50 (Ub-PCNA)
Exercise: for every item that follows, state its recorded IC50.

query: Determine its reported IC50: `CCn1cc(C(F)(F)F)nc1-c1c(F)cc(CN2C(=O)CCn3nc(-c4c(OC)ncnc4C4CC4)nc32)cc1OC`
result: < 100 nM

query: Determine its reported IC50: `COc1ncnc(C2CC2)c1-c1nc2n(n1)CCC(=O)N2Cc1ccc(-c2nc(C(F)(F)F)cn2C(C)C)c(F)c1OC`
result: < 100 nM

query: Determine its reported IC50: CCn1cc(C(F)(F)F)nc1-c1ccc(NC2c3cc(-c4c(Cl)cnn4C(C)C)nn3CCC2(C)C)cc1 (centres unmarked)
result: < 100 nM

query: Determine its reported IC50: `Cc1cnn(C(C)C)c1-c1nc2n(n1)CCCN2Cc1ccc(-c2nc(C(F)(F)F)cn2C)cc1`
result: < 100 nM

query: Determine its reported IC50: `COc1cc(CN2C(=O)CCn3nc(-c4c(Cl)cnn4C(C)C)cc32)ccc1-c1nc(C(F)(F)F)cn1C(C)C`
result: < 100 nM

query: Determine its reported IC50: `CCn1cc(C(F)(F)F)nc1-c1ccc(CN2C(=O)CCn3nc(-c4c(OC)ncnc4C4CC4)nc32)c(OC)c1F`
result: < 100 nM

query: Determine its reported IC50: `CCn1cc(C(F)(F)F)nc1-c1ccc(CN2C(=O)CCn3nc(-c4c(Cl)cnn4[C@@H](C)COC)cc32)cc1F`
result: < 100 nM

query: Determine its reported IC50: CCn1cc(C(F)(F)F)nc1-c1ccc(OC2CCCCn3nc(-c4c(Cl)cnn4C(C)C)cc32)cc1 (centres unmarked)
result: < 100 nM

query: Determine its reported IC50: `COc1ncnc(C2CC2)c1-c1cc2n(n1)CCC(=O)N2[C@H](C)c1ccc(-c2nc(C(F)(F)F)cn2C(C)C)cc1`
result: < 100 nM

query: Determine its reported IC50: Cc1cc(C(F)(F)F)nn1-c1ccc(NC2CCCn3nc(-c4c(Cl)cnn4C(C)C)cc32)cc1 (centres unmarked)
result: < 100 nM

query: Determine its reported IC50: `CCn1cc(C(F)(F)F)nc1-c1ccc(Cn2c(=O)ccn3nc(-c4c(OC)ncnc4C4CC4)cc23)cc1`
result: < 100 nM

query: Determine its reported IC50: `COc1nccc(C2CC2)c1-c1nc2n(n1)CCC(=O)N2Cc1ccc(-c2nc(C(F)(F)F)cn2C(C)C)c(F)c1`
result: 100 to 500 nM

query: Determine its reported IC50: `COc1cccc(C)c1-c1cc2n(n1)CCCN2Cc1ccc(-c2nc(C(F)(F)F)cn2C)cc1`
result: > 500 nM

query: Determine its reported IC50: `CC(C)n1ncc(Cl)c1-c1cc2n(n1)CCC(=O)N2Cc1ccc(-c2nn(C)cc2C#N)cc1`
result: 100 to 500 nM

###

TEST TARGET: USP1/UAF1 enzyme (Homo sapiens, UniProt O94782)
Sequence (O94782 whole entry): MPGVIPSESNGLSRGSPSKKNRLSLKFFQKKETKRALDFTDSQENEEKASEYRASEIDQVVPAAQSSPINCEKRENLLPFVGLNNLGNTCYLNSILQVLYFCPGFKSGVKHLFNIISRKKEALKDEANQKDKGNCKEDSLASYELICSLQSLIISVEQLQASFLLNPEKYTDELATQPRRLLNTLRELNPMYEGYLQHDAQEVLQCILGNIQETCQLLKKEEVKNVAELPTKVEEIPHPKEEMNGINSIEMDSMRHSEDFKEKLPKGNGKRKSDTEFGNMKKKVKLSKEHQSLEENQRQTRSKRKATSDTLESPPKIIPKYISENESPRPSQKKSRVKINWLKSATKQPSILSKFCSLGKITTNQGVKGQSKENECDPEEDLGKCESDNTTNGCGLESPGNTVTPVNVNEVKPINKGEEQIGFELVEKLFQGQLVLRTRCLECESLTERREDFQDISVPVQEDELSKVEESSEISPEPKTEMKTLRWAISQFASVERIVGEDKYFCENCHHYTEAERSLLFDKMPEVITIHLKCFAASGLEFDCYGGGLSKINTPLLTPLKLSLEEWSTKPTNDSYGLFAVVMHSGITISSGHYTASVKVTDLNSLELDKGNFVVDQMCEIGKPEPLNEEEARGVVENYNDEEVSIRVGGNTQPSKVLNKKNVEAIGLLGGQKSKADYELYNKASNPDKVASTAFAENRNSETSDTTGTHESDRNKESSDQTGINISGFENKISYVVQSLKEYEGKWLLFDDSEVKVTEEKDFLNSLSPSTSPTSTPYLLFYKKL
Sequence (Q8TAF3 whole entry partner): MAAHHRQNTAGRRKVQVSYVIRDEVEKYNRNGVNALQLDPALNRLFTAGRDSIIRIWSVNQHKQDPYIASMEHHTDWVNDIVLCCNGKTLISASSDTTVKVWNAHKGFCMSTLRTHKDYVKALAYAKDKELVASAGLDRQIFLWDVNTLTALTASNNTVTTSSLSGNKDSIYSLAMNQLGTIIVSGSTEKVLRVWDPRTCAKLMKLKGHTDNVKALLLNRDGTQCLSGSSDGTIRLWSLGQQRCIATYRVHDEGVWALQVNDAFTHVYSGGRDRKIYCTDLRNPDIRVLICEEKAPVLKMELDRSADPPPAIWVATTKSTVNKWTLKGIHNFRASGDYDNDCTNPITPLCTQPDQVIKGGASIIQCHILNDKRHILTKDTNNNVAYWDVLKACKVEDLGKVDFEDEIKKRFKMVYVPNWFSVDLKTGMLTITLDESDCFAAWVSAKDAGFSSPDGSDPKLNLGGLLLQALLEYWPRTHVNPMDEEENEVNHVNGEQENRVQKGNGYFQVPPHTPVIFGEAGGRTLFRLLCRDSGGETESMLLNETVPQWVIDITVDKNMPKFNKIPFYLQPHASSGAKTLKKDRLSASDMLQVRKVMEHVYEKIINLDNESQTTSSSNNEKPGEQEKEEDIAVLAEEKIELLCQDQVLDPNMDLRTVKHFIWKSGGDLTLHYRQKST
PROCEDURE TEXT: USP1/UAF1 deubiquitination assay (ubiquitin-rhodamine 110 substrate)
MEASUREMENT SETUP: read-out: USP1 IC50 (Ub-Rho)
MEASURE: IC50

query: State the measured IC50 (USP1/UAF1 enzyme (Homo sapiens, UniProt O94782)) of CCn1cc(C(F)(F)F)nc1-c1ccc([C@@H](C)N2C(=O)CCn3nc(-c4c(Cl)cnn4C(C)C)nc32)cc1F [Example 182]
result: < 100 nM

query: State the measured IC50 (USP1/UAF1 enzyme (Homo sapiens, UniProt O94782)) of CCn1cc(C(F)(F)F)nc1-c1ccc(CN2C(=O)CCn3nc(-c4c(C#N)cnn4C(C)C)cc32)cc1 [Example 156]
result: < 100 nM

query: State the measured IC50 (USP1/UAF1 enzyme (Homo sapiens, UniProt O94782)) of CC(C)n1ncc(Cl)c1-c1cc2n(n1)CCC(=O)N2Cc1ccc(-c2ccn(S(=O)(=O)N(C)C)n2)c(Cl)c1 [Example 320]
result: 100 to 500 nM

query: State the measured IC50 (USP1/UAF1 enzyme (Homo sapiens, UniProt O94782)) of CCn1cc(C(F)(F)F)nc1-c1ccc([C@@H](C)n2c(=O)ccn3nc(-c4c(OC)ncnc4C4CC4)nc23)cc1 [Example 338]
result: < 100 nM

query: State the measured IC50 (USP1/UAF1 enzyme (Homo sapiens, UniProt O94782)) of CC(C)n1ncc(Cl)c1-c1cc2n(n1)CCC(=O)N2Cc1ccc(-c2ncccc2N(C)C)cc1 [Example 321]
result: < 100 nM

query: State the measured IC50 (USP1/UAF1 enzyme (Homo sapiens, UniProt O94782)) of Cc1cnn(C(C)C)c1-c1nc2n(n1)CCC(=O)N2Cc1ccc(-c2nc(C(F)(F)F)cn2C)cc1 [Example 37]
result: < 100 nM

query: State the measured IC50 (USP1/UAF1 enzyme (Homo sapiens, UniProt O94782)) of CC(C)n1ncc(Cl)c1-c1cc2n(n1)CCC(=O)N2Cc1ccc(-c2cncc(C(F)(F)F)n2)c(Cl)c1 [Example 272]
result: > 500 nM

query: State the measured IC50 (USP1/UAF1 enzyme (Homo sapiens, UniProt O94782)) of CCn1cc(C(F)(F)F)nc1-c1ccc(CN2CCCn3nc(-c4c(Cl)cnn4C(C)C)cc32)cc1F [Example 60]
result: < 100 nM

query: State the measured IC50 (USP1/UAF1 enzyme (Homo sapiens, UniProt O94782)) of CCn1cc(C(F)(F)F)nc1-c1ccc([C@@H](C)n2c(=O)ccn3nc(-c4c(OC)ncnc4C4CC4)nc23)cc1F [Example 341]
result: < 100 nM

query: State the measured IC50 (USP1/UAF1 enzyme (Homo sapiens, UniProt O94782)) of CCn1cc(C#N)nc1-c1ccc([C@@H](C)N2C(=O)CCn3nc(-c4c(OC)ncnc4C4CC4)nc32)cc1 [Example 199]
result: 100 to 500 nM

query: State the measured IC50 (USP1/UAF1 enzyme (Homo sapiens, UniProt O94782)) of COc1cc(C(F)(F)F)nn1-c1ccc(CN2C(=O)CCn3nc(-c4c(C)cnn4C(C)C)cc32)cc1F [Example 12]
result: < 100 nM
